Sourced from BigSolDB 2.1

# REPORTED_CONDITIONS: in ethylene glycol, 298.15 K

COMPOUND	solubility (mole fraction)
CC(C)(C)C(O)/C(=C\c1ccc(Cl)cc1)n1cncn1 (stereo unspecified)	0.00128

###

# REPORTED_CONDITIONS: in water, 323.15 K
PARAMETER: solubility (mole fraction)

COMPOUND	VALUE_MEASURED
CC(C)(C)C(O)/C(=C\c1ccc(Cl)cc1)n1cncn1 (stereo unspecified)	4.2e-06

###

# REPORTED_CONDITIONS: in ethylene glycol, 318.15 K

MOLECULE	solubility (mole fraction)
CC(C)(C)C(O)/C(=C\c1ccc(Cl)cc1)n1cncn1 (stereo unspecified)	0.00248

###

# REPORTED_CONDITIONS: in n-butyl acetate, 313.15 K

COMPOUND	solubility (mole fraction)
CC(C)(C)C(O)/C(=C\c1ccc(Cl)cc1)n1cncn1 (stereo unspecified)	0.0332

###

# REPORTED_CONDITIONS: in n-butanol, 323.15 K

COMPOUND	solubility (mole fraction)
CC(C)(C)C(O)/C(=C\c1ccc(Cl)cc1)n1cncn1 (stereo unspecified)	0.0623

###

# REPORTED_CONDITIONS: in propylene glycol, 303.15 K

COMPOUND	solubility (mole fraction)
CC(C)(C)C(O)/C(=C\c1ccc(Cl)cc1)n1cncn1 (stereo unspecified)	0.00749

###

# REPORTED_CONDITIONS: in n-butanol, 318.15 K

MOLECULE	solubility (mole fraction)
CC(C)(C)C(O)/C(=C\c1ccc(Cl)cc1)n1cncn1 (stereo unspecified)	0.0475

###

# REPORTED_CONDITIONS: in isobutyl acetate, 298.15 K
PARAMETER: solubility (mole fraction)

COMPOUND	PARAMETER	VALUE_MEASURED
CC(C)(C)C(O)/C(=C\c1ccc(Cl)cc1)n1cncn1 (stereo unspecified)	solubility (mole fraction)	0.0159

###

# REPORTED_CONDITIONS: in n-propanol, 298.15 K
PARAMETER: solubility (mole fraction)

MOLECULE	PARAMETER	VALUE_MEASURED
CC(C)(C)C(O)/C(=C\c1ccc(Cl)cc1)n1cncn1 (stereo unspecified)	solubility (mole fraction)	0.0231

###

# REPORTED_CONDITIONS: in isobutyl acetate, 313.15 K

COMPOUND	solubility (mole fraction)
CC(C)(C)C(O)/C(=C\c1ccc(Cl)cc1)n1cncn1 (stereo unspecified)	0.0263

###

# REPORTED_CONDITIONS: in n-octanol, 293.15 K

COMPOUND	solubility (mole fraction)
CC(C)(C)C(O)/C(=C\c1ccc(Cl)cc1)n1cncn1 (stereo unspecified)	0.0225

###

# REPORTED_CONDITIONS: in n-octanol, 313.15 K

COMPOUND	solubility (mole fraction)
CC(C)(C)C(O)/C(=C\c1ccc(Cl)cc1)n1cncn1 (stereo unspecified)	0.0369

###

# REPORTED_CONDITIONS: in isopropanol, 323.15 K

MOLECULE	solubility (mole fraction)
CC(C)(C)C(O)/C(=C\c1ccc(Cl)cc1)n1cncn1 (stereo unspecified)	0.047

###

# REPORTED_CONDITIONS: in methyl acetate, 288.15 K

MOLECULE	solubility (mole fraction)
CC(C)(C)C(O)/C(=C\c1ccc(Cl)cc1)n1cncn1 (stereo unspecified)	0.0116

###

# REPORTED_CONDITIONS: in n-propanol, 278.15 K

COMPOUND	solubility (mole fraction)
CC(C)(C)C(O)/C(=C\c1ccc(Cl)cc1)n1cncn1 (stereo unspecified)	0.0143
